Consider the following binders; for each one, report its % bound.
- system.tested: human collagen type I (acid soluble, extracted from placenta, Sigma C7774) (human) (UniProt P02452)
- Sequence (P02452 162-1218 limits assumed, chain 1 of 2): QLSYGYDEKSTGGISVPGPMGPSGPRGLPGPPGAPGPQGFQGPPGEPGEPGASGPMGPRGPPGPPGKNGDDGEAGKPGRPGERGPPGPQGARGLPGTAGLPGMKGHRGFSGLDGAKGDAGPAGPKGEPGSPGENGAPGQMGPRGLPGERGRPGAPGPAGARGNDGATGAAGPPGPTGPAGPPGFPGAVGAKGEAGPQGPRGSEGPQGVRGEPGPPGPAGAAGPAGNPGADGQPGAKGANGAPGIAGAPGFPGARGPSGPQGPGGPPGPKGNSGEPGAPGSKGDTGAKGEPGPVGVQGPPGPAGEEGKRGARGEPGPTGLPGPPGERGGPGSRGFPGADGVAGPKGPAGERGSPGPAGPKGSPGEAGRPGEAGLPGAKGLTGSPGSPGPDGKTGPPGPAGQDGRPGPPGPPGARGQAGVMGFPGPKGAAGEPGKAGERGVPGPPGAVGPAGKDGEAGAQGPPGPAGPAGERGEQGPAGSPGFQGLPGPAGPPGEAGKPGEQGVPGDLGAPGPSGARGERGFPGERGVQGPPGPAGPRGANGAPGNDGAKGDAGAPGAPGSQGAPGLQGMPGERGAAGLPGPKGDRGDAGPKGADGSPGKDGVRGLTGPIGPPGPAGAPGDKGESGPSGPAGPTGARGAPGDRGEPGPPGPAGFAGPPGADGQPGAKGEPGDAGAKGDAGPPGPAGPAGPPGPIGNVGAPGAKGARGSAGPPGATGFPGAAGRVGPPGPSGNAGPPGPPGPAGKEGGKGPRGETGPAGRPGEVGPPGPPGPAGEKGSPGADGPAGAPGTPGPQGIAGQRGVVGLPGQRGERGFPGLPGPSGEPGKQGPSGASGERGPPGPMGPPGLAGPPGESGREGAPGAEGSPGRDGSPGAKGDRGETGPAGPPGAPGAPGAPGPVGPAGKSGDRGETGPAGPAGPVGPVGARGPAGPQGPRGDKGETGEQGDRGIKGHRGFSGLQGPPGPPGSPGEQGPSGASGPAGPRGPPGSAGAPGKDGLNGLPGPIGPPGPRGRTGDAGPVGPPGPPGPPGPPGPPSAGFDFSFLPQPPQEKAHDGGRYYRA
- Sequence (P08123 80-1119 limits assumed, chain 2 of 2, further chain): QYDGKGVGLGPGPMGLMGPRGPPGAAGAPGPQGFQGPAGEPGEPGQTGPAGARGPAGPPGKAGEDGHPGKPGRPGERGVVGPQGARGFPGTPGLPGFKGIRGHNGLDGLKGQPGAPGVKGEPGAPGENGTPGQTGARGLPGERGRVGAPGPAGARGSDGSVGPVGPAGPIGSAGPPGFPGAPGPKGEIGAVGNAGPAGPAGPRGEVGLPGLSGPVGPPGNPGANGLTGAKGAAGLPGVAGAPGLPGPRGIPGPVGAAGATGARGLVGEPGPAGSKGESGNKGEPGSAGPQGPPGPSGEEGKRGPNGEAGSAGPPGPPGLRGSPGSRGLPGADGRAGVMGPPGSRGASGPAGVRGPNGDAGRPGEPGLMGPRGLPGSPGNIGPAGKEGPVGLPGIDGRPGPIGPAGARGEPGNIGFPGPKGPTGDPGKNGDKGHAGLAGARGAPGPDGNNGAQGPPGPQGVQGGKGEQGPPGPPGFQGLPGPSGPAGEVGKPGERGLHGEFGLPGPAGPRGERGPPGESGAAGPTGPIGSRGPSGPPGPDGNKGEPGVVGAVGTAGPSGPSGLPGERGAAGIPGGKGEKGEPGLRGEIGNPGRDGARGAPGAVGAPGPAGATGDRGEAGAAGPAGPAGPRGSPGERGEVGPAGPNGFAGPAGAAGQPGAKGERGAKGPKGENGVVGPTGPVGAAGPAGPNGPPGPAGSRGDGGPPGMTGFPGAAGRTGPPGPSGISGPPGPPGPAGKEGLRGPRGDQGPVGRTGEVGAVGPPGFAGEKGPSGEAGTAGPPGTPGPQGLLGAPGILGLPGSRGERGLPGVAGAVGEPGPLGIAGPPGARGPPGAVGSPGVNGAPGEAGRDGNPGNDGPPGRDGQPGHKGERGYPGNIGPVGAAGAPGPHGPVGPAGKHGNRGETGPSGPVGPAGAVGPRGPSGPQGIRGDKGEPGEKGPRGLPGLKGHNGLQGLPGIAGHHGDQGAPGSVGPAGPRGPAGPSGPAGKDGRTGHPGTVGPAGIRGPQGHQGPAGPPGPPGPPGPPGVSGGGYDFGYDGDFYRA
- method.summary: dried collagen assay
Bridge positions count the residues as written; N and C are the ends. Square brackets hold non-standard residues; d marks the D form. Ends that are not written are not given here. Gd^T = not defined here
Write it as a number; the unit % goes unstated.

The reported % bound of the binder {Gd^T}-DWTCS[dA]DEYTWHCNYE (disulfide 4-13 (inferred); not fully specified (C-terminus); printed as Gd^T-DWTCSaDEYTWHCNYE; reading uncertain) [Comp ID 835] was 17

The reported % bound of the binder SWYCNNGSYGQWHCEHR (disulfide 4-14 (inferred)) [SEQ ID NO: 80] was 6

The reported % bound of the binder FSECVWVNAYQCEYF (disulfide 4-12 (inferred)) [SEQ ID NO: 113] was 3

The reported % bound of the binder GQWHCTTDFPHHYCLYG (not fully specified; Gd^T-GQWHCTTD-F(3,4-OMe)-PHHYCLYG) [Comp ID 893] was 4

The reported % bound of the binder KWECVHTKGEWYCETK (disulfide 4-13 (inferred)) [SEQ ID NO: 65] was 7
